Biological target: KRAS G12D-GTP & SOS1 (Homo sapiens (Human), UniProt P01116, G12D)
Assay: KRAS G12D/SOS1 binding experiment (HTRF)
Details: competitive binding
Reported IC50 values for a set of compounds
Could you give me the number in nM? Just the number is fine.

Given the entry C#Cc1nc(-c2cc(O)cc(Cl)c2C2CC2)c(F)c2nc(OC[C@@]34CCCN3C[C@H](F)C4)nc(N3CC4CCC(C3)N4)c12 [Compound 78] , report its measured IC50.
17.3

Let us now turn to C#Cc1c(F)ccc2cc(O)cc(-c3nc(C#CCC)c4c(N5CC6CCC(C5)N6)nc(OC[C@@]56CCCN5C[C@H](F)C6)nc4c3F)c12 [Compound 24]
15.1

Let us now turn to C#Cc1c(F)ccc2cc(O)cc(-c3nc(C#CCCC(C)C)c4c(N5CC6CCC(C5)N6)nc(OC[C@@]56CCCN5C[C@H](F)C6)nc4c3F)c12 [Compound 30]
13.4

Let us now turn to C#Cc1c(F)ccc2cc(O)cc(-c3nc(C#CC4CCCC4)c4c(N5CC6CCC(C5)N6)nc(OC[C@@]56CCCN5C[C@H](F)C6)nc4c3F)c12 [Compound 28]
11.5

Others:
Given the entry C#Cc1c(F)ccc2cc(O)cc(-c3nc(C#C)c4c(N5CC6CCC(C5)N6)nc(OC[C@@H]5CCCN5C)nc4c3F)c12 [Compound 51] , report its measured IC50.
20.8

---

Test: Stability in mouse liver microsomes
Type: in vitro ADME
Settings: pH 7.4; mouse liver microsomes 0.5 mg/mL, 1 μM, 37° C.; read-out: CLint
measuredProperty: microsomal CLint at 1 μM (µL/min/mg)
Could you give me the number in µL/min/mg? Just the number is fine.

Given the entry "C#Cc1c(F)ccc2cc(O)cc(-c3nc(C#C)c4c(N5CC6CCC(C5)N6)nc(OC[C@@]56CCCN5C[C@H](F)C6)nc4c3F)c12" , report its measured microsomal CLint at 1 μM.
47.6

Others:
Given the entry "C#Cc1nc(-c2cc(O)cc3cccc(Cl)c23)c(F)c2nc(OC[C@@]34CCCN3C[C@H](F)C4)nc(N3CC4CCC(C3)N4)c12" , report its measured microsomal CLint at 1 μM.
45.3

---

Assay: in vivo
Design: species or system BALB/c mice
Conditions: BALB/c, mouse, iv, 2 mg/kg
measuredProperty: Cmax
Returns: string containing the numeric result and its unit.

Given the entry "C#Cc1nc(-c2cc(O)cc3cccc(Cl)c23)c(F)c2nc(OC[C@@]34CCCN3C[C@H](F)C4)nc(N3CC4CCC(C3)N4)c12" , report its measured Cmax.
4300 ng/mL

---

Target: KRAS G12D-GTP & cRAF (Homo sapiens (Human), UniProt P01116, G12D)
Sequence (P01116-2 other isoform, or with tags, fused parts or gaps G12D): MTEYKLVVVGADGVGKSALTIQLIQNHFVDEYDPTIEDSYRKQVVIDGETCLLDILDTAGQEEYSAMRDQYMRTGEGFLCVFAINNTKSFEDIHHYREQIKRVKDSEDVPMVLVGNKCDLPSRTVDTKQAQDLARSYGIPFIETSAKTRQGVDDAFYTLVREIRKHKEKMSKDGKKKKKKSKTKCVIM
Assay: KRAS G12D/cRAF binding experiment (HTRF)
Details: competitive binding
Reported pIC50 values for a set of compounds
Note: pIC50 values are expressed as the negative base-10 logarithm of concentration in M.

Guide cases for pIC50, answers given:
Given the entry C#Cc1c(F)ccc2cc(O)cc(-c3nc(OCCC(F)(F)F)c4c(N5CC6CCC(C5)N6)nc(OC[C@@]56CCCN5C[C@H](F)C6)nc4c3F)c12 [Compound 9] , report its measured pIC50.
8.06

Let us now turn to C#Cc1c(F)ccc2cc(O)cc(-c3nc(C#C)c4c(N5CCN[C@@H](C)C5)nc(OC[C@@]56CCCN5C[C@H](F)C6)nc4c3F)c12 [Compound 43]
7.79

Next compound, pIC50 to be filled in.
Given the entry C#Cc1c(F)ccc2cc(O)cc(-c3nc(C#C)c4c(N5CC6CC(C5)N6)nc(OC[C@@]56CCCN5C[C@H](F)C6)nc4c3F)c12 [Compound 41] , report its measured pIC50.
7.66

---

Assay: in vivo
Parameters: species or system BALB/c mice
Conditions: BALB/c, mouse, mice, intravenous, 2 mg/kg, read-out: MRTlast
measuredProperty: MRT last (min)
Could you give me the number in min? Just the number is fine.

Given the entry "C#Cc1c(F)ccc2cc(O)cc(-c3nc(C#C)c4c(N5CC6CCC(C5)N6)nc(OC[C@@]56CCCN5C[C@H](F)C6)nc4c3F)c12" , report its measured MRT last.
42

---

Assay: in vivo
Parameters: species or system BALB/c mice
Conditions: BALB/c, mouse, iv, 2 mg/kg
measuredProperty: Vd (L/kg)
Could you give me the number in L/kg? Just the number is fine.

Given the entry C#Cc1nc(-c2cc(O)cc3cccc(Cl)c23)c(F)c2nc(OC[C@@]34CCCN3C[C@H](F)C4)nc(N3CC4CCC(C3)N4)c12 [Compound 67] , report its measured Vd.
0.5

---

Target: KRAS G12D-GTP & cRAF (Homo sapiens (Human), UniProt P01116, G12D)
Experiment: KRAS G12D/cRAF binding experiment (HTRF)
Details: competitive binding
Reported pIC50 values for a set of compounds
Note: pIC50 values are expressed as the negative base-10 logarithm of concentration in M.

Given the entry "C#Cc1c(F)ccc2cc(O)cc(-c3nc(C#CCOC)c4c(N5CC6CCC(C5)N6)nc(OC[C@@]56CCCN5C[C@H](F)C6)nc4c3F)c12" , report its measured pIC50.
7.82

Let us now turn to "C#Cc1c(F)ccc2cc(O)cc(-c3nc(C#C)c4c(N5CC6CCC(C5)N6)nc(OC[C@@H]5CCCN5C)nc4c3F)c12"
7.95

Let us now turn to "C#Cc1c(F)ccc2cc(O)cc(-c3nc(OCCOC)c4c(N5CC6CCC(C5)N6)nc(OC[C@@]56CCCN5C[C@H](F)C6)nc4c3F)c12"
8.06

Let us now turn to "C#Cc1c(F)ccc2cc(O)cc(-c3nc(C#C)c4c(N5CC6CCC(C5)N6)nc(OCC5(CN6CCOCC6)CC5)nc4c3F)c12"
8.37

Let us now turn to "C#Cc1nc(-c2cc(O)cc3ccc(F)c(CC)c23)c(F)c2nc(OC[C@@]34CCCN3C[C@H](F)C4)nc(N3CC4CCC(C3)N4)c12"
8.00

Let us now turn to "C#Cc1nc(-c2cc(O)cc(Cl)c2C2CC2)c(F)c2nc(OC[C@@]34CCCN3C[C@H](F)C4)nc(N3CC4CCC(C3)N4)c12"
8.12

Let us now turn to "C#Cc1c(F)ccc2cccc(-c3nc(C#C)c4c(N5CC6CCC(C5)N6)nc(OC[C@@]56CCCN5C[C@H](F)C6)nc4c3F)c12"
7.68

Let us now turn to "C#Cc1c(F)ccc2cc(O)cc(-c3nc(C#C)c4c(N5CC6CCC(C5)N6)nc(OCC5(CN(C)C)CC5)nc4c3F)c12"
8.11

Others:
Given the entry "C#Cc1nc(-c2cc(O)cc3ccccc23)c(F)c2nc(OC[C@@]34CCCN3C[C@H](F)C4)nc(N3CC4CCC(C3)N4)c12" , report its measured pIC50.
8.23

Let us now turn to "C#Cc1c(F)ccc2cc(O)cc(-c3nc(C#CCC)c4c(N5CC6CCC(C5)N6)nc(OC[C@@]56CCCN5C[C@H](F)C6)nc4c3F)c12"
7.87

Let us now turn to "C#Cc1nc(-c2cc(O)cc3cccc(F)c23)c(F)c2nc(OC[C@@]34CCCN3C[C@H](F)C4)nc(N3CC4CCC(C3)N4)c12"
8.19

Let us now turn to "C#Cc1c(F)ccc2cc(O)cc(-c3nc(C(=O)OCC)c4c(N5CC6CCC(C5)N6)nc(OC[C@@]56CCCN5C[C@H](F)C6)nc4c3F)c12"
8.29

Let us now turn to "C#Cc1c(F)ccc2cc(O)cc(-c3nc(C#C)c4c(N5CC6CCC(C5)N6)nc(OCC5CCCC5)nc4c3F)c12"
7.73

---

Target: KRAS G12D-GTP & SOS1 (Homo sapiens (Human), UniProt P01116, G12D)
Assay: KRAS G12D/SOS1 binding experiment (HTRF)
Details: competitive binding
We label by threshold. Values of IC50 strictly beneath 20 nM are t. Values of 20 nM and up are f.

Answer whether the compound C#Cc1c(F)ccc2cc(O)cc(-c3nc(OCCOC)c4c(N5CC6CCC(C5)N6)nc(OC[C@@]56CCCN5C[C@H](F)C6)nc4c3F)c12 [Compound 10] has IC50 strictly less than 20 nM
t

---

Assay: Stability in human liver microsomes
Type: in vitro ADME
Conditions: pH 7.4; human liver microsomes 0.5 mg/mL, 1 μM, 37° C.; read-out: T1/2
Reported half-life at 1 μM values for a set of compounds
Returns: string containing the numeric result and its unit.

Given the entry "C#Cc1c(F)ccc2cc(O)cc(-c3nc(C#C)c4c(N5CC6CCC(C5)N6)nc(OC[C@@]56CCCN5C[C@H](F)C6)nc4c3F)c12" , report its measured half-life at 1 μM.
1.25 h

Next compound, half-life at 1 μM to be filled in.
Given the entry "C#Cc1nc(-c2cc(O)cc3cccc(Cl)c23)c(F)c2nc(OC[C@@]34CCCN3C[C@H](F)C4)nc(N3CC4CCC(C3)N4)c12" , report its measured half-life at 1 μM.
1.99 h

Attribution: patent US20250034169A1
